protocol-description: Metabolic stability in pooled CD1 mouse liver microsomes assessed as compound remaining after 1 hr by LC-MS-MS
Format: ADME, Microsome
applied-conditions: read-out: Stability
reported-endpoint: remaining at 1 h (%)

[[record]]
substance_smiles = "O=[N+]([O-])c1cn2c(n1)OC[C@@H](OCc1ccc(-c3ccc(OC(F)F)cc3)cc1)C2"
reported_endpoint = "remaining at 1 h"
data_value = 77

[[record]]
substance_smiles = "O=[N+]([O-])c1cn2c(n1)OC[C@@H](OCc1ccc(-c3ccc(OC(F)(F)F)c(Cl)c3)cc1)C2"
reported_endpoint = "remaining at 1 h"
data_value = 84

[[record]]
substance_smiles = "COc1c(F)cc(F)cc1-c1ccc(CO[C@@H]2COc3nc([N+](=O)[O-])cn3C2)cc1"
reported_endpoint = "remaining at 1 h"
data_value = 2

[[record]]
substance_smiles = "O=[N+]([O-])c1cn2c(n1)OC[C@@H](OCc1ccc(-c3ccc(OC(F)(F)F)cc3Cl)cc1)C2"
reported_endpoint = "remaining at 1 h"
data_value = 86

[[record]]
substance_smiles = "O=[N+]([O-])c1cn2c(n1)OC[C@@H](OCc1ccc(-c3ccc(Oc4ccccc4)cc3)cc1)C2"
reported_endpoint = "remaining at 1 h"
data_value = 48

[[record]]
substance_smiles = "CC(=O)c1ccc(-c2ccc(CO[C@@H]3COc4nc([N+](=O)[O-])cn4C3)cc2)cc1"
reported_endpoint = "remaining at 1 h"
data_value = 70

[[record]]
substance_smiles = "O=[N+]([O-])c1cn2c(n1)OC[C@@H](OCc1ccc(-c3ccccc3OCCCO)cc1)C2"
reported_endpoint = "remaining at 1 h"
data_value = 21

[[record]]
substance_smiles = "O=[N+]([O-])c1cn2c(n1)OC[C@@H](OCc1ccc(-c3ccc(C(F)(F)F)cc3)cc1)C2"
reported_endpoint = "remaining at 1 h"
data_value = 85


====

Tested on: Mycobacterium tuberculosis
protocol-description: Antitubercular activity against Mycobacterium tuberculosis H37Rv in anaerobic condition after 7 days by low oxygen recovery assay
Assay type: functional
applied-conditions: 168 h
Recorded log10(MIC) for the following compounds
reported-endpoint: log10(MIC) (log10 of the value in µM)

[[record]]
substance_smiles = "O=[N+]([O-])c1cn2c(n1)OC[C@@H](OCc1cccc(-c3ccc(OC(F)F)cc3)c1)C2"
reported_endpoint = "log10(MIC)"
data_value = 0.45

[[record]]
substance_smiles = "COc1ccc(-c2cccc(CO[C@@H]3COc4nc([N+](=O)[O-])cn4C3)c2)cc1F"
reported_endpoint = "log10(MIC)"
data_value = 0.34

[[record]]
substance_smiles = "O=[N+]([O-])c1cn2c(n1)OC[C@@H](OCc1ccc(-c3cccc(OC(F)(F)F)c3)cc1)C2"
reported_endpoint = "log10(MIC)"
data_value = 0.15

[[record]]
substance_smiles = "COc1cccc(F)c1-c1ccc(CO[C@@H]2COc3nc([N+](=O)[O-])cn3C2)cc1"
reported_endpoint = "log10(MIC)"
data_value = -0.09

[[record]]
substance_smiles = "CC(=O)c1ccc(-c2ccccc2CO[C@@H]2COc3nc([N+](=O)[O-])cn3C2)cc1"
reported_endpoint = "log10(MIC)"
data_value = 1.56

[[record]]
substance_smiles = "O=[N+]([O-])c1cn2c(n1)OC[C@@H](OCc1ccc(-c3ccc(OC(F)(F)F)cc3)cc1)C2"
reported_endpoint = "log10(MIC)"
data_value = 0.11

[[record]]
substance_smiles = "O=[N+]([O-])c1cn2c(n1)OC[C@@H](OCc1cccc(-c3ccc4ccccc4c3)c1)C2"
reported_endpoint = "log10(MIC)"
data_value = 0.51

[[record]]
substance_smiles = "COc1cccc(-c2ccc(CO[C@@H]3COc4nc([N+](=O)[O-])cn4C3)cc2)c1"
reported_endpoint = "log10(MIC)"
data_value = 0.28

[[record]]
substance_smiles = "O=[N+]([O-])c1cn2c(n1)OC[C@@H](OCc1cccc(-c3cccc(OCCCN4CCOCC4)c3)c1)C2"
reported_endpoint = "log10(MIC)"
data_value = 1.04

[[record]]
substance_smiles = "O=[N+]([O-])c1cn2c(n1)OC[C@@H](OCc1ccc(-c3ccccc3Cl)cc1)C2"
reported_endpoint = "log10(MIC)"
data_value = 0.18

[[record]]
substance_smiles = "O=[N+]([O-])c1cn2c(n1)OC[C@@H](OCc1cccc(-c3cccc(O)c3)c1)C2"
reported_endpoint = "log10(MIC)"
data_value = 0.57

[[record]]
substance_smiles = "O=[N+]([O-])c1cn2c(n1)OC[C@@H](OCc1ccccc1-c1cccc(F)c1)C2"
reported_endpoint = "log10(MIC)"
data_value = 0.48

[[record]]
substance_smiles = "O=[N+]([O-])c1cn2c(n1)OC[C@@H](OCc1cccc(-c3ccc(C(F)(F)F)cc3)c1)C2"
reported_endpoint = "log10(MIC)"
data_value = 0.46

[[record]]
substance_smiles = "CC(C)Oc1ccc(-c2ccc(CO[C@@H]3COc4nc([N+](=O)[O-])cn4C3)cc2)cc1"
reported_endpoint = "log10(MIC)"
data_value = 0.58

[[record]]
substance_smiles = "O=[N+]([O-])c1cn2c(n1)OC[C@@H](OCc1ccc(-c3ccc(OC(F)(F)F)cc3Cl)cc1)C2"
reported_endpoint = "log10(MIC)"
data_value = -0.11

[[record]]
substance_smiles = "Nc1cccc(-c2ccc(CO[C@@H]3COc4nc([N+](=O)[O-])cn4C3)cc2)c1"
reported_endpoint = "log10(MIC)"
data_value = 0.15

[[record]]
substance_smiles = "O=[N+]([O-])c1cn2c(n1)OC[C@@H](OCc1cccc(-c3cccc(F)c3)c1)C2"
reported_endpoint = "log10(MIC)"
data_value = 0.43

[[record]]
substance_smiles = "N#Cc1cccc(-c2ccccc2CO[C@@H]2COc3nc([N+](=O)[O-])cn3C2)c1"
reported_endpoint = "log10(MIC)"
data_value = 0.91

[[record]]
substance_smiles = "O=[N+]([O-])c1cn2c(n1)OC[C@@H](OCc1ccc(-c3ccc(OCCCN4CCOCC4)cc3)cc1)C2"
reported_endpoint = "log10(MIC)"
data_value = 0.00

[[record]]
substance_smiles = "O=[N+]([O-])c1cn2c(n1)OC[C@@H](OCc1ccc(-c3ccc(F)cc3)cc1)C2"
reported_endpoint = "log10(MIC)"
data_value = 0.15

[[record]]
substance_smiles = "CC(=O)c1ccc(-c2ccc(CO[C@@H]3COc4nc([N+](=O)[O-])cn4C3)cc2)cc1"
reported_endpoint = "log10(MIC)"
data_value = -0.14

[[record]]
substance_smiles = "CC(C)c1cccc(-c2ccc(CO[C@@H]3COc4nc([N+](=O)[O-])cn4C3)cc2)c1"
reported_endpoint = "log10(MIC)"
data_value = 0.62

[[record]]
substance_smiles = "CSc1cccc(-c2ccccc2CO[C@@H]2COc3nc([N+](=O)[O-])cn3C2)c1"
reported_endpoint = "log10(MIC)"
data_value = 0.51

[[record]]
substance_smiles = "O=[N+]([O-])c1cn2c(n1)OC[C@@H](OCc1ccc(-c3ccc(O)cc3)cc1)C2"
reported_endpoint = "log10(MIC)"
data_value = 0.63

[[record]]
substance_smiles = "O=[N+]([O-])c1cn2c(n1)OC[C@@H](OCc1ccc(-c3ccc(C(F)(F)F)c(Cl)c3)cc1)C2"
reported_endpoint = "log10(MIC)"
data_value = -0.01

[[record]]
substance_smiles = "N#Cc1cccc(-c2cccc(CO[C@@H]3COc4nc([N+](=O)[O-])cn4C3)c2)c1"
reported_endpoint = "log10(MIC)"
data_value = 0.57

[[record]]
substance_smiles = "O=[N+]([O-])c1cn2c(n1)OC[C@@H](OCc1ccc(-c3ccc(Oc4ccccc4)cc3)cc1)C2"
reported_endpoint = "log10(MIC)"
data_value = 0.43

[[record]]
substance_smiles = "O=[N+]([O-])c1cn2c(n1)OC[C@@H](OCc1cccc(-c3ccc(OCCCN4CCOCC4)cc3)c1)C2"
reported_endpoint = "log10(MIC)"
data_value = 1.04

[[record]]
substance_smiles = "O=[N+]([O-])c1cn2c(n1)OC[C@@H](OCc1ccc(-c3ccc(OC(F)(F)F)c([N+](=O)[O-])c3)cc1)C2"
reported_endpoint = "log10(MIC)"
data_value = 0.20

[[record]]
substance_smiles = "COc1cccc(OC)c1-c1ccc(CO[C@@H]2COc3nc([N+](=O)[O-])cn3C2)cc1"
reported_endpoint = "log10(MIC)"
data_value = 0.00

[[record]]
substance_smiles = "COc1ccc(-c2ccccc2CO[C@@H]2COc3nc([N+](=O)[O-])cn3C2)cc1F"
reported_endpoint = "log10(MIC)"
data_value = 0.58

[[record]]
substance_smiles = "COc1cc(-c2ccc(CO[C@@H]3COc4nc([N+](=O)[O-])cn4C3)cc2)ccc1F"
reported_endpoint = "log10(MIC)"
data_value = 0.18

[[record]]
substance_smiles = "O=[N+]([O-])c1cn2c(n1)OC[C@@H](OCc1ccc(-c3ccccc3)cc1)C2"
reported_endpoint = "log10(MIC)"
data_value = 0.59

[[record]]
substance_smiles = "N#Cc1cccc(-c2ccc(CO[C@@H]3COc4nc([N+](=O)[O-])cn4C3)cc2)c1"
reported_endpoint = "log10(MIC)"
data_value = 0.11

